Where do these numbers come from? They come from PubChem BioAssay (EPA / NIEHS).

Target: X-box-binding protein 1 (Homo sapiens) (UniProt P17861)
Sequence (P17861 whole entry, looked up): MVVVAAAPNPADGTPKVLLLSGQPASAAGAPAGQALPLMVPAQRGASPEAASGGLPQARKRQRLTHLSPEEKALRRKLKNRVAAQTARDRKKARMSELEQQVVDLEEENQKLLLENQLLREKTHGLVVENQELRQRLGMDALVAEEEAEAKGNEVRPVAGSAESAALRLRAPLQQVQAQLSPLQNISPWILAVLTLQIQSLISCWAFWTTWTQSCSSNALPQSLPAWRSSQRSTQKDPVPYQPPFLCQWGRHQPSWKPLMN
Assay: ATG_Xbp1_CIS: Attagene CIS-FACTORIAL HepG2 Assay for human X-box Binding Protein 1 (XBP1) (AID 2282972)
Settings: HepG2 XBP1 cis-element reporter, Attagene multiplex; actives raise or lower the signal
The source made the active and inactive calls. How the source made its calls: active means hit-call score of the fitted dose curve at least 0.9, where 1 is the maximum; inactive means score below 0.9.
Answer with one of the outcomes yes (1) (active), no (0) (inactive)

[[record]]
compound = "C=CC(=O)OCCCCCC"
classification = "no (0)"


For CCCCCCC(C)O (configuration not stated) , what call appears in the results of this test?
no (0)

So what was the verdict on CC(C)(C)c1ccc(S)cc1 in this test?
no (0)

Returns: the outcome recorded for CC(C)(C)C1CCC(O)CC1 (configuration not stated) in this assay.
no (0)

# fetch the recorded call for CCCOC(=O)CC here
no (0)

Which outcome was assigned to CCOC(=O)C=Cc1ccccc1 in this test?
no (0)

Tell me the assay call for CCCC1CCC(=O)CC1 please.
no (0)

Write down the call the test reported for this compound. Item: O=C(O)c1cc2ccccc2cc1O
no (0)
